Molecular target: human NHE3 (Homo sapiens)
Sequence (P48764 26-834): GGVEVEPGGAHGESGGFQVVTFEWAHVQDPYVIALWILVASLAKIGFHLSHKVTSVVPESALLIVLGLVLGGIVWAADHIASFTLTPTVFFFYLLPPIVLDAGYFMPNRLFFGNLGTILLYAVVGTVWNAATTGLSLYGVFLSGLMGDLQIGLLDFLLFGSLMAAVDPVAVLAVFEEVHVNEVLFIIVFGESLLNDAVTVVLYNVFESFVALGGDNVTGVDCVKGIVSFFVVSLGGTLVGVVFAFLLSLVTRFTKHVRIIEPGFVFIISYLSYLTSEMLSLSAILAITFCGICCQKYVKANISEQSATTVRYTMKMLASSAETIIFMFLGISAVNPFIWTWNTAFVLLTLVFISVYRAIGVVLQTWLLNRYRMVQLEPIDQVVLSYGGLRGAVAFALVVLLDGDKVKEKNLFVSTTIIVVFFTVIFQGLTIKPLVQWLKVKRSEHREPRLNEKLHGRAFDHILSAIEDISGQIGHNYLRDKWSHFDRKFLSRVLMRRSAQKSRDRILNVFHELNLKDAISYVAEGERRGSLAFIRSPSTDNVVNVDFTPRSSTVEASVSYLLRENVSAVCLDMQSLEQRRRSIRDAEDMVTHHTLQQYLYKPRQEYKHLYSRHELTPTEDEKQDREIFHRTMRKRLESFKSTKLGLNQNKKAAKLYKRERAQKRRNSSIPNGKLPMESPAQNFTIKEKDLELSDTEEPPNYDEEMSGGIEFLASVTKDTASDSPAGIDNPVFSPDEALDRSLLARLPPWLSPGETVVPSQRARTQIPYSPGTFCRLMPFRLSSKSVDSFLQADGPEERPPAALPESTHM
Test: NHE3 inhibition test (recovery of intracellular pH in cell line stably expressing human NHE3)
Format: cell-based
Conditions: OK cells deficient in endogenous NHE stably expressing human NHE3; BCECF fluorescence, initial rate of pH recovery; read-out: human NHE3 inhibitory activity IC50
pIC50: −log10 of the molar value.
Metric name: pIC50

[
  {
    "Mol smiles": "CN1Cc2c(Cl)cc(Cl)cc2[C@H](c2cccc(-c3cc(OCCOCCOCCNC(=O)NCCCCNC(=O)NCCOCCOCCOc4cc(-c5cccc([C@@H]6CN(C)Cc7c(Cl)cc(Cl)cc76)c5)ncn4)ncn3)c2)C1",
    "pIC50": 8.12
  }
]

P. CN1Cc2c(Cl)cc(Cl)cc2[C@H](c2cccc(-c3cn(CCOCCOCCOCCNC(=O)NCCOCCOCCNC(=O)NCCOCCOCCOCCn4cc(-c5cccc([C@@H]6CN(C)Cc7c(Cl)cc(Cl)cc76)c5)nn4)nn3)c2)C1
Q. CN1Cc2c(Cl)cc(Cl)cc2[C@H](c2cccc(-c3ccnc(C#N)c3)c2)C1
Response body: label of entry with the larger pIC50; valid values P , Q . Returns: label corresponding to the selected item. P

###

Target: human NHE3 (Homo sapiens)
Experiment: NHE3 inhibition test (recovery of intracellular pH in cell line stably expressing human NHE3)
Conditions: OK cells deficient in endogenous NHE stably expressing human NHE3; BCECF fluorescence, initial rate of pH recovery; read-out: human NHE3 inhibitory activity IC50
Counter-ions that a name gives are not always drawn.
Metric name: IC50 (µM)

[
  {
    "Compound": "CN1Cc2c(Cl)cc(Cl)cc2[C@H](c2cccc(-c3cc(OCCOCCOCCOCCNC(=O)Nc4ccc(NC(=O)NCCOCCOCCOCCOc5cc(-c6cccc([C@@H]7CN(C)Cc8c(Cl)cc(Cl)cc87)c6)ncn5)cc4)ncn3)c2)C1 [Example 7-25, hydrochloride]",
    "Assay target": "human NHE3 (Homo sapiens)",
    "Value units": "µM",
    "Observed value": 0.0136
  },
  {
    "Compound": "CN1Cc2c(Cl)cc(Cl)cc2[C@@H](c2cccc(-c3cn(CCOCCOCCOCCOCCOCCNC(=O)[C@H](O)[C@@H](O)[C@@H](O)[C@H](O)C(=O)NCCOCCOCCOCCOCCOCCn4cc(-c5cccc([C@@H]6CN(C)Cc7c(Cl)cc(Cl)cc76)c5)nn4)nn3)c2)C1 [Example 6-12, hydrochloride]",
    "Assay target": "human NHE3 (Homo sapiens)",
    "Value units": "µM",
    "Observed value": 0.0023
  },
  {
    "Compound": "CN1Cc2c(Cl)cc(Cl)cc2C(c2cccc(-c3ccnc(NCCOCCOCCNC(=O)Nc4ccc(NC(=O)NCCOCCOCCNc5cc(-c6cccc(C7CN(C)Cc8c(Cl)cc(Cl)cc87)c6)ccn5)cc4)c3)c2)C1 (stereo not shown) [Example 7-41]",
    "Assay target": "human NHE3 (Homo sapiens)",
    "Value units": "µM",
    "Observed value": 5.52
  }
]

a. CN1Cc2c(Cl)cc(Cl)cc2[C@H](c2cccc(-c3cc(NCCOCCOCCNC(=O)Nc4ccc(NC(=O)NCCOCCOCCNc5cc(-c6cccc([C@@H]7CN(C)Cc8c(Cl)cc(Cl)cc87)c6)ncn5)cc4)ncn3)c2)C1 [Example 7-14, trifluoroacetate]
b. CN1Cc2c(Cl)cc(Cl)cc2[C@H](c2cccc(-c3cc(NCCOCCOCCNC(=O)NCCCCNC(=O)NCCOCCOCCNc4cc(-c5cccc([C@@H]6CN(C)Cc7c(Cl)cc(Cl)cc76)c5)ncn4)ncn3)c2)C1 [Example 7-2]
c. CN1Cc2c(Cl)cc(Cl)cc2[C@H](c2cccc(-c3cn(CCOCCOCCOCCNC(=O)NCCCCNC(=O)NCCOCCOCCOCCn4cc(-c5cccc([C@@H]6CN(C)Cc7c(Cl)cc(Cl)cc76)c5)nn4)nn3)c2)C1 [Example 6-2]
Put the items in sequence by IC50, from largest down. Put the labels in the requested order and write them down. a, b, c

A. CN1Cc2c(Cl)cc(Cl)cc2[C@H](c2cccc(-c3cnnc(NCCOCCOCCOCCNC(=O)NCCCCNC(=O)NCCOCCOCCOCCNc4cc(-c5cccc([C@@H]6CN(C)Cc7c(Cl)cc(Cl)cc76)c5)cnn4)c3)c2)C1 [Example 7-32]
B. CN1Cc2c(Cl)cc(Cl)cc2[C@@H](c2cccc(-c3cc(OCCOCCOCCOCCNC(=O)COCC(=O)NCCOCCOCCOCCOc4cc(-c5cccc([C@@H]6CN(C)Cc7c(Cl)cc(Cl)cc76)c5)ncn4)ncn3)c2)C1 [Example 8-18, hydrochloride]
C. CN1Cc2c(Cl)cc(Cl)cc2[C@H](c2cccc(-c3cn(CCOCCOCCOCCNC(=O)NCCCCCCCCNC(=O)NCCOCCOCCOCCn4cc(-c5cccc([C@@H]6CN(C)Cc7c(Cl)cc(Cl)cc76)c5)nn4)nn3)c2)C1 [Example 7-28]
D. CN1Cc2c(Cl)cc(Cl)cc2[C@H](c2cccc(-c3ccccn3)c2)C1 [Example 1-6, trifluoroacetate]
Number of compounds to sort: 4. Sort criterion: IC50, ascending. Put the labels in the requested order and write them down. C, B, A, D
(C: 0.0073 µM, B: 0.0107 µM, A: 0.0181 µM, D: 0.373 µM)

a. CN1Cc2c(Cl)cc(Cl)cc2[C@H](c2cccc(-c3nnn(CCOCCOCCNC(=O)NCCCCNC(=O)NCCOCCOCCn4nnc(-c5cccc([C@@H]6CN(C)Cc7c(Cl)cc(Cl)cc76)c5)n4)n3)c2)C1 [Example 7-9]
b. CN1Cc2c(Cl)cc(Cl)cc2[C@H](c2cccc(-c3ccc(NCCOCCOCCNC(=O)CCCCC(=O)NCCOCCOCCNc4ccc(-c5cccc([C@@H]6CN(C)Cc7c(Cl)cc(Cl)cc76)c5)cn4)nc3)c2)C1 [Example 8-3, hydrochloride]
Response body: label of entry with the larger IC50; valid values a , b . Returns: label corresponding to the selected item. b
(b: 0.0132 µM, a: 0.0073 µM)

1. CN1Cc2c(Cl)cc(Cl)cc2[C@H](c2cccc(-c3nnc(CCOCCOCCNC(=O)NCCCCNC(=O)NCCOCCOCCc4nnc(-c5cccc([C@@H]6CN(C)Cc7c(Cl)cc(Cl)cc76)c5)[nH]4)[nH]3)c2)C1 [Example 7-21]
2. CN1Cc2c(Cl)cc(Cl)cc2[C@H](c2cccc(-c3cn(CCOCCOCCNC(=O)Nc4ccc(NC(=O)NCCOCCOCCn5cc(-c6cccc([C@@H]7CN(C)Cc8c(Cl)cc(Cl)cc87)c6)nn5)cc4)nn3)c2)C1 [Example 6-5]
3. CN1Cc2c(Cl)cc(Cl)cc2[C@H](c2cccc(-c3cn(CCOCCOCCOCCNC(=O)NCCOCCOCCOCCn4cc(-c5cccc([C@@H]6CN(C)Cc7c(Cl)cc(Cl)cc76)c5)nn4)nn3)c2)C1 [Example 7-36, hydrochloride]
Put the items in sequence by IC50, from largest down. Put the labels in the requested order and write them down. 3, 2, 1
